Target: MAP kinase-activated protein kinase 2 (Homo sapiens)
Sequence (P49137 whole entry): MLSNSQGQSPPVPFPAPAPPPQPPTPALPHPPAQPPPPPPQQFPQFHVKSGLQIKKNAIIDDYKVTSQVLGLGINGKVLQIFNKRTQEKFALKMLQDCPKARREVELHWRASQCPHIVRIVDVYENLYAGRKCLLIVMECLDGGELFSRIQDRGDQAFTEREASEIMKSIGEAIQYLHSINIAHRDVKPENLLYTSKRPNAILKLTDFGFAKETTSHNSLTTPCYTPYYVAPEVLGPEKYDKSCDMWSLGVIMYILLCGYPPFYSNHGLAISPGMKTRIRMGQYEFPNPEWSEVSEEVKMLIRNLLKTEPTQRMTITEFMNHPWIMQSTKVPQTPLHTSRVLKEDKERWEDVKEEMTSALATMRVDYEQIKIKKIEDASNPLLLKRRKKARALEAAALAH
Assay: Inhibition of human MK2 using hsp27 peptide biotinyl-AYSRALSRQLSSGVSEIRCOOH as substrate after 45 mins by FRET assay
assayMetric: IC50 (nM)

Below, 5 compounds whose answers are already recorded.
[
  {
    "structureAsSmiles": "COCCOc1cncc(-c2cc3c(ccc4c5c([nH]c43)CNC5=O)cn2)c1",
    "valueMeasured": 5
  },
  {
    "structureAsSmiles": "O=C1NCc2[nH]c3c(ccc4cnc(-c5cncc(OCCN6CCOCC6)c5)cc43)c21",
    "valueMeasured": 5
  },
  {
    "structureAsSmiles": "O=C1NCCc2[nH]c3c(ccc4cnc(/C=C/c5cccc(CCN6CCOCC6)c5)cc43)c21",
    "valueMeasured": 5
  },
  {
    "structureAsSmiles": "NCc1[nH]c2c(ccc3cnc(/C=C/c4ccccc4)cc32)c1C(=O)O",
    "valueMeasured": 14
  },
  {
    "structureAsSmiles": "O=C1NCc2[nH]c3c(ccc4cnc(-c5ccccc5C(F)(F)F)cc43)c21",
    "valueMeasured": 900
  }
]

(P) CN1Cc2[nH]c3c(ccc4cnc(/C=C/c5ccccc5)cc43)c2C1=O
(Q) O=C1NCc2[nH]c3c(ccc4cnc(/C=C/c5ccccc5)cc43)c21
(R) O=C1NCCCc2[nH]c3c(ccc4cnc(/C=C/c5ccccc5)cc43)c21
(S) O=C1NCCc2[nH]c3c(ccc4cnc(-c5cccc(OCCN6CCOCC6)c5)cc43)c21
-- ask # rank_down: sort by IC50, max first Please, when replying, give the labels in the order that was requested.
-- reply P, R, S, Q
(P: 1190 nM, R: 116 nM, S: 16 nM, Q: 10 nM)
